experimentSummary: Apparent permeability across Caco-2 monolayer (BA and AB)
Assay type: in vitro ADME
measurementSetup: human; Basolateral-to-Apical, 120 min, HBSS pH 7.4
propertyMeasured: Papp B→A at 120 min, 100 µM (×10⁻⁶ cm/s)
# number only, unit ×10⁻⁶ cm/s dropped from output

Quick note, Papp B→A at 120 min, 100 µM for Cc1cccc(C)c1NC(=O)CC(C)NCc1ccc2ccccc2c1 (centres unmarked) landed at 216

Papp B→A at 120 min, 100 µM for Cc1cccc(C)c1NC(=O)CC(C)NCc1cccc2ccccc12 (centres unmarked) is 223

Cc1cccc(C)c1OCCC(C)NCc1ccc2ccccc2c1 (centres unmarked) yielded Papp B→A at 120 min, 100 µM of 199

Summary for this compound, Cc1cccc(C)c1OCCC(C)NCc1cccc2ccccc12 (centres unmarked) : Papp B→A at 120 min, 100 µM is 180

What the record says about Cc1cccc(C)c1NC(=O)C(C)N (centres unmarked) [tocainide] : Papp B→A at 120 min, 100 µM is 196

---

experimentSummary: Apparent permeability across Caco-2 monolayer (BA and AB)
Format: in vitro ADME
measurementSetup: human; Apical-to-Basolateral, 120 min, HBSS pH 7.4
propertyMeasured: Papp A→B at 120 min, 100 µM (×10⁻⁶ cm/s)
State just the number; it will be interpreted in ×10⁻⁶ cm/s.

molecule	propertyMeasured	observedResult
Cc1cccc(C)c1NC(=O)C(C)N (centres unmarked) [tocainide]	Papp A→B at 120 min, 100 µM	49.6
Cc1cccc(C)c1OCCC(C)NCc1ccc2ccccc2c1 (centres unmarked)	Papp A→B at 120 min, 100 µM	49.6
Cc1cccc(C)c1NC(=O)CC(C)NCc1cccc2ccccc12 (centres unmarked)	Papp A→B at 120 min, 100 µM	56.6
Cc1cccc(C)c1OCCC(C)NCc1cccc2ccccc12 (centres unmarked)	Papp A→B at 120 min, 100 µM	25.9

Continue with the molecule presented below.
Lab note: Cc1cccc(C)c1NC(=O)CC(C)NCc1ccc2ccccc2c1 (centres unmarked) gave Papp A→B at 120 min, 100 µM of 43.8

---

targetUnderTest: hNav1.4 (Homo sapiens)
Sequence (P35499 whole entry): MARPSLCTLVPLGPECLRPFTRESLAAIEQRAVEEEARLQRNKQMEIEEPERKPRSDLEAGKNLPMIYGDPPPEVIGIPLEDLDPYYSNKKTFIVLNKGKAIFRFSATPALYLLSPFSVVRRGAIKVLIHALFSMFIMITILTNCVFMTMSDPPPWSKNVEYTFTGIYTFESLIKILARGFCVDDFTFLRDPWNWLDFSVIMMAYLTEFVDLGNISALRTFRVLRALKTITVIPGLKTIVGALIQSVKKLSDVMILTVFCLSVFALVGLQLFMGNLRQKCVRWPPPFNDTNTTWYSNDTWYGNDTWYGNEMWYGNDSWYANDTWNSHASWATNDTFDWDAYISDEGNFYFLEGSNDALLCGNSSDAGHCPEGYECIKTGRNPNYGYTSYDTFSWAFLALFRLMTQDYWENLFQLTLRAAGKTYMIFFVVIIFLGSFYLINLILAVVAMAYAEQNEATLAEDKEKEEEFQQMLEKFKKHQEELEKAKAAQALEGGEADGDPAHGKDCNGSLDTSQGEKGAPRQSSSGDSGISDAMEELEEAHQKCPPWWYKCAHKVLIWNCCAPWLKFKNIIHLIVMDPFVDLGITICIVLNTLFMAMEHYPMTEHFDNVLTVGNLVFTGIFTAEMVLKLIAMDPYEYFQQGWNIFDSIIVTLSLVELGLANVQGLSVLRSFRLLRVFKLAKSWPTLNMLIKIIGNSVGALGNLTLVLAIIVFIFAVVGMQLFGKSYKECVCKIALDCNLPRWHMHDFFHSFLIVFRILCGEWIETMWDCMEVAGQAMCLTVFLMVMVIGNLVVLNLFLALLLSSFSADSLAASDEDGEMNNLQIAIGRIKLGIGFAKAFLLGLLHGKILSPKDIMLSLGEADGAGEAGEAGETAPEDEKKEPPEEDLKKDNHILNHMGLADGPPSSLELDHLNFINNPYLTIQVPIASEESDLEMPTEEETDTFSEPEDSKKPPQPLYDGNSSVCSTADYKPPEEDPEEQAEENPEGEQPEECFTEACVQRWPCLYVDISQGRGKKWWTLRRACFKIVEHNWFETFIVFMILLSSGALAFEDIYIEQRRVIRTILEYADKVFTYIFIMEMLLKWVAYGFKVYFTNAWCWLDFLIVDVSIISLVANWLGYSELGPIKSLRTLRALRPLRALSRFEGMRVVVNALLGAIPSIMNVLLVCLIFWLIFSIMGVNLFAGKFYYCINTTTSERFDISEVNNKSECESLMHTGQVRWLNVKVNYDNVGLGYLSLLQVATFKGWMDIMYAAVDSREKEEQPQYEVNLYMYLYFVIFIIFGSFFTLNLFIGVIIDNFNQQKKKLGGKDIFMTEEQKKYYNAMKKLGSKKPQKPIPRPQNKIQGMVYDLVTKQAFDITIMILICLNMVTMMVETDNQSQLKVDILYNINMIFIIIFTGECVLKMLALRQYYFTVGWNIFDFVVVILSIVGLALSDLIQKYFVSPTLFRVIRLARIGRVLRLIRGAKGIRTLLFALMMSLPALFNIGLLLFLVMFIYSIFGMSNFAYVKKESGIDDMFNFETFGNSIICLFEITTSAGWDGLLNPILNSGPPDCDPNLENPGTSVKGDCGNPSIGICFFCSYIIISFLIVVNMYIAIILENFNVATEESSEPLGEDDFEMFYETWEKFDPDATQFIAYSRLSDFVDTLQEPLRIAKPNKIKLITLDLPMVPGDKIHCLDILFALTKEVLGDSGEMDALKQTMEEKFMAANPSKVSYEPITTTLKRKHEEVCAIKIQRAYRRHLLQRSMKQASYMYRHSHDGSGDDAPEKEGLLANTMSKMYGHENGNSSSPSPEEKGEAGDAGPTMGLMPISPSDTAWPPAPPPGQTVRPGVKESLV
experimentSummary: Patch-clamp block of hNav1.4 sodium currents in HEK293T cells
Format: cell-based
measurementSetup: 0.1 Hz stimulation, HEK293T cells, value ± standard error of the fit; read-out: Tonic Block IC50 at 0.1 Hz
Below is a list of entries, each paired with its recorded pIC50 value.
// pIC50 is dimensionless: -log10 of concentration (M)

// solved cases for pIC50 follow
compound	pIC50
Cc1cccc(C)c1OCCC(C)NCc1cccc2ccccc12 (stereo not drawn)	2.97
Cc1cccc(C)c1NC(=O)CC(C)NCc1ccc2ccccc2c1 (stereo not drawn)	3.83

API: the following record is the query input.
Cc1cccc(C)c1OCCC(C)NCc1ccc2ccccc2c1 (stereo not drawn) has a reported pIC50 of 4.06

---

Overview of reported pIC50 across a group of compounds:
targetUnderTest: hNav1.4 (Homo sapiens)
experimentSummary: Patch-clamp block of hNav1.4 sodium currents in HEK293T cells
Assay type: cell-based
measurementSetup: 10 Hz stimulation, HEK293T cells, value ± standard error of the fit; read-out: Phasic Block IC50 at 10 Hz
Protocol: Patch clamp experiments. Exploratory compounds were tested on sodium currents recorded in HEK293T cells (human embryonic kidney cell line) permanently expressing the wild‐type human Nav1.4 sodium channel, as previously described.[14, 61] Whole‐cell sodium currents were recorded at room temperature (∼22 °C) using Axon hardware and software (Axon Instruments Inc., Union City, CA, USA). Bath solution contained (mM): 150 NaCl, 4 KCl, 2 CaCl2, 1 MgCl2, 5 HEPES and 5 glucose (pH 7.4). […]
Formally, pIC50 is defined as -log10 of the concentration c, with c in mol/L.

Measured pIC50 of Cc1cccc(C)c1OCCC(C)NCc1ccc2ccccc2c1 (stereo not drawn) [17 b] : 5.06

Sure, the documented pIC50 for Cc1cccc(C)c1NC(=O)CC(C)NCc1ccc2ccccc2c1 (stereo not drawn) [13 b] is 4.85

Lab note: Cc1cccc(C)c1OCCC(C)NCc1cccc2ccccc12 (stereo not drawn) [17 a] gave pIC50 of 4.24

---

Entries annotated with measured efflux ratio at 120 min, 100 µM
System: P-gp
experimentSummary: Apparent permeability across Caco-2 monolayer (BA and AB)
Format: in vitro ADME
measurementSetup: human, pH 7.4; ratio of Papp BA to Papp AB
Give the figure by itself; no unit, no explanation.

compound	observedResult
Cc1cccc(C)c1NC(=O)CC(C)NCc1ccc2ccccc2c1 (stereo not shown) [13 b]	4.9

// recorded efflux ratio at 120 min, 100 µM for Cc1cccc(C)c1OCCC(C)NCc1ccc2ccccc2c1 (stereo not shown) [17 b] : 4

So, Cc1cccc(C)c1OCCC(C)NCc1cccc2ccccc12 (stereo not shown) [17 a] ? Its efflux ratio at 120 min, 100 µM was 7.1

Looking up Cc1cccc(C)c1NC(=O)C(C)N (stereo not shown) [tocainide] , I found its efflux ratio at 120 min, 100 µM recorded as 3.9
